The following compounds are shown together with reported combination Emax values.
- System: SW948 (Colorectal Carcinoma)
- test: combination Emax (second highest fraction inhibited in the dose matrix, 72 h); higher = more inhibition; extreme values may be limits of the assay
Output spec: single numeric token, no unit.

>  <compound>
CN(CCO)CC[C@H](CSc1ccccc1)Nc1ccc(S(=O)(=O)NC(=O)c2ccc(N3CCC([C@@H](O)c4ccccc4-c4ccc(Cl)cc4)CC3)cc2)cc1S(=O)(=O)C(F)(F)F [AZD4320] + CCN(CCO)CCCOc1ccc2c(Nc3cc(CC(=O)Nc4cccc(F)c4)[nH]n3)ncnc2c1 [AZD2811] (first compound max 1 µM, 7x7, partner max 1 µM)

>  <reported property>
combination Emax

>  <obs value>
0.545

$$$$
>  <compound>
COc1nnc2ccc(N3CCC(c4ccc(OCCN5CCN(C)C(=O)[C@H]5C)cc4)CC3)nn12 [AZD5153] + Cn1cnc2c(F)c(Nc3ccc(Br)cc3Cl)c(C(=O)NOCCO)cc21 [Selumetinib] (first compound max 1 µM, 7x7, partner max 10 µM)

>  <reported property>
combination Emax

>  <obs value>
0.752

$$$$
>  <compound>
NC1(C(=O)N[C@@H](CCO)c2ccc(Cl)cc2)CCN(c2ncnc3[nH]ccc23)CC1 [Capivasertib] + CC(=O)c1c(C)c2cnc(Nc3ccc(N4CCNCC4)cn3)nc2n(C2CCCC2)c1=O [Palbociclib] (first compound max 10 µM, 7x7, partner max 10 µM)

>  <reported property>
combination Emax

>  <obs value>
0.57

$$$$

## Task Return combination Emax measured with SW948 (Colorectal Carcinoma) given this compound: CC1(C)CCC(CN2CCN(c3ccc(C(=O)NS(=O)(=O)c4ccc(NCC5CCOCC5)c([N+](=O)[O-])c4)c(Oc4cnc5[nH]ccc5c4)c3)CC2)=C(c2ccc(Cl)cc2)C1 [Venetoclax] + C1CN(CCC1(C(=O)N[C@@H](CCO)C2=CC=C(C=C2)Cl)N)C3=NC=NC4=C3C=CN4 [Capivasertib] (first compound max 1 µM, 7x7, partner max 3 µM)
## Result 0.646

## Task Return combination Emax measured with SW948 (Colorectal Carcinoma) given this compound: CC1(C)CCC(CN2CCN(c3ccc(C(=O)NS(=O)(=O)c4ccc(NCC5CCOCC5)c([N+](=O)[O-])c4)c(Oc4cnc5[nH]ccc5c4)c3)CC2)=C(c2ccc(Cl)cc2)C1 [Venetoclax] + Cn1cnc2c(F)c(Nc3ccc(Br)cc3Cl)c(C(=O)NOCCO)cc21 [Selumetinib] (first compound max 1 µM, 7x7, partner max 3 µM)
## Result 0.577

## Task Return combination Emax measured with SW948 (Colorectal Carcinoma) given this compound: Cc1c2c(nn1C)CSCc1cc(n(C)n1)CSc1cc(c3ccccc3c1)OCCCc1c(C(=O)O)n(C)c3c-2c(Cl)ccc13 [AZD5991] + C[C@@H]1COCCN1C2=NC(=NC(=C2)C3(CC3)[S@](=N)(=O)C)C4=C5C=CNC5=NC=C4 [AZD6738] (first compound max 1 µM, 7x7, partner max 10 µM)
## Result 0.563

## Task Return combination Emax measured with SW948 (Colorectal Carcinoma) given this compound: COc1nnc2ccc(N3CCC(c4ccc(OCCN5CCN(C)C(=O)[C@H]5C)cc4)CC3)nn12 [AZD5153] + C[C@@H]1COCCN1C2=NC(=NC(=C2)C3(CC3)[S@](=N)(=O)C)C4=C5C=CNC5=NC=C4 [AZD6738] (first compound max 1 µM, 7x7, partner max 10 µM)
## Result 0.675

## Task Return combination Emax measured with SW948 (Colorectal Carcinoma) given this compound: Cn1cnc2c(F)c(Nc3ccc(Br)cc3Cl)c(C(=O)NOCCO)cc21 [Selumetinib] + C=CCn1c(=O)c2cnc(Nc3ccc(N4CCN(C)CC4)cc3)nc2n1-c1cccc(C(C)(C)O)n1 [AZD1775] (first compound max 10 µM, partner max 1 µM)
## Result 0.79

## Task Return combination Emax measured with SW948 (Colorectal Carcinoma) given this compound: NC1(C(=O)N[C@@H](CCO)c2ccc(Cl)cc2)CCN(c2ncnc3[nH]ccc23)CC1 [Capivasertib] + C[C@@H]1COCCN1C2=NC(=NC(=C2)C3(CC3)[S@](=N)(=O)C)C4=C5C=CNC5=NC=C4 [AZD6738] (first compound max 10 µM, 7x7, partner max 10 µM)
## Result 0.675

###

- Test system: HCC1143 (Breast Carcinoma)
- test: Bliss excess, mean over the matrix (fraction); higher = more synergy
The following molecules are shown together with reported Bliss excess values.
Output spec: single numeric token, no unit.

>  <molecule>
CN(C)CCCOc1ccc(-c2ccc3ncc4c(c3c2)n(C2CCOCC2)c(=O)n4C)cn1 [AZD0156] + O=C(c1cc(Cc2n[nH]c(=O)c3ccccc23)ccc1F)N1CCN(C(=O)C2CC2)CC1 [Olaparib] (first compound max 3 µM, partner max 3 µM)

>  <Bliss excess>
-0.0194

$$$$

Kindly consider the entry below.
## Task Can you look up the measured Bliss excess of Cn1cnc2c(F)c(Nc3ccc(Br)cc3Cl)c(C(=O)NOCCO)cc21 [Selumetinib] + CCN(CCO)CCCOc1ccc2c(Nc3cc(CC(=O)Nc4cccc(F)c4)[nH]n3)ncnc2c1 [AZD2811] (first compound max 10 µM, 7x7, partner max 1 µM) for me?
## Result 0.0298

###

- Tested on: EFM-192A (Breast Carcinoma)
- test: Bliss excess, mean over the matrix (fraction); higher = more synergy
reported property: Bliss excess
Output spec: single numeric token, no unit.

>  <molecule>
Cc1cc2ncnn2cc1Nc1ncc2c(n1)n(C1CCOCC1)c(=O)n2C [AZD7648] + C[C@@H]1COCCN1C2=NC(=NC(=C2)C3(CC3)[S@](=N)(=O)C)C4=C5C=CNC5=NC=C4 [AZD6738] (first compound max 10 µM, 7x7, partner max 10 µM)

>  <reported property>
Bliss excess

>  <obs value>
0.0421

$$$$
>  <molecule>
NC1(C(=O)N[C@@H](CCO)c2ccc(Cl)cc2)CCN(c2ncnc3[nH]ccc23)CC1 [Capivasertib] + CC(C)n1c(=O)n(C)c2cnc3cc(F)c(-c4ccc(OCCCN5CCCCC5)nc4)cc3c21 [AZD1390] (first compound max 10 µM, 7x7, partner max 0.3 µM)

>  <reported property>
Bliss excess

>  <obs value>
-0.062

$$$$
>  <molecule>
NC1(C(=O)N[C@@H](CCO)c2ccc(Cl)cc2)CCN(c2ncnc3[nH]ccc23)CC1 [Capivasertib] + C[C@@H]1COCCN1C2=NC(=NC(=C2)C3(CC3)[S@](=N)(=O)C)C4=C5C=CNC5=NC=C4 [AZD6738] (first compound max 10 µM, 7x7, partner max 10 µM)

>  <reported property>
Bliss excess

>  <obs value>
-0.0546

$$$$

Kindly consider the entry below.
## Task Can you look up the measured Bliss excess of COc1nnc2ccc(N3CCC(c4ccc(OCCN5CCN(C)C(=O)[C@H]5C)cc4)CC3)nn12 [AZD5153] + C[C@@H]1COCCN1C2=NC(=NC(=C2)C3(CC3)[S@](=N)(=O)C)C4=C5C=CNC5=NC=C4 [AZD6738] (first compound max 1 µM, 7x7, partner max 10 µM) for me?
## Result 0.0551

###

- Tested on: SK-MEL-1 (Melanoma)
- test: combination Emax (second highest fraction inhibited in the dose matrix, 72 h); higher = more inhibition; extreme values may be limits of the assay
reported property: combination Emax
Output spec: single numeric token, no unit.

Consider the worked cases shown below.
>  <molecule>
N#Cc1cnc(Nc2cc(NC[C@H]3CNCCO3)c(C(F)(F)F)cn2)cn1 [SRA737] + C=CCn1c(=O)c2cnc(Nc3ccc(N4CCN(C)CC4)cc3)nc2n1-c1cccc(C(C)(C)O)n1 [AZD1775] (first compound max 10 µM, partner max 1 µM)

>  <assayed target>
SK-MEL-1 (Melanoma)

>  <reported property>
combination Emax

>  <obs value>
0.277

$$$$
>  <molecule>
Cc1c2c(nn1C)CSCc1cc(n(C)n1)CSc1cc(c3ccccc3c1)OCCCc1c(C(=O)O)n(C)c3c-2c(Cl)ccc13 [AZD5991] + C[C@@H](Nc1cc(F)cc(F)c1)c1cc(C(=O)N(C)C)cc2c(=O)cc(N3CCOCC3)oc12 [AZD8186] (first compound max 1 µM, 7x7, partner max 3 µM)

>  <assayed target>
SK-MEL-1 (Melanoma)

>  <reported property>
combination Emax

>  <obs value>
0.153

$$$$
>  <molecule>
CN(C)CCCOc1ccc(-c2ccc3ncc4c(c3c2)n(C2CCOCC2)c(=O)n4C)cn1 [AZD0156] + C=CCn1c(=O)c2cnc(Nc3ccc(N4CCN(C)CC4)cc3)nc2n1-c1cccc(C(C)(C)O)n1 [AZD1775] (first compound max 1 µM, partner max 1 µM)

>  <assayed target>
SK-MEL-1 (Melanoma)

>  <reported property>
combination Emax

>  <obs value>
0.442

$$$$

## Task Can you look up the measured combination Emax of NC1(C(=O)N[C@@H](CCO)c2ccc(Cl)cc2)CCN(c2ncnc3[nH]ccc23)CC1 [Capivasertib] + CCN(CCO)CCCOc1ccc2c(Nc3cc(CC(=O)Nc4cccc(F)c4)[nH]n3)ncnc2c1 [AZD2811] (first compound max 10 µM, 7x7, partner max 1 µM) for me?
## Result 0.292

## Task Can you look up the measured combination Emax of C[C@@H]1COCCN1c1cc(C2([S@](C)(=N)=O)CC2)nc(-c2ccnc3[nH]ccc23)n1 [AZD6738] + C1CC(C1)(C(=O)[O-])C(=O)[O-].N.N.[Pt+2] [Carboplatin] (first compound max 10 µM, 7x7, partner max 10 µM) for me?
## Result 0.32

## Task Can you look up the measured combination Emax of COc1cccc(OCCCN)c1-c1cc(Nc2cnc(C#N)cn2)n[nH]1 [Prexasertib] + O=C(c1cc(Cc2n[nH]c(=O)c3ccccc23)ccc1F)N1CCN(C(=O)C2CC2)CC1 [Olaparib] (first compound max 1 µM, 7x7, partner max 10 µM) for me?
## Result 0.596

## Task Can you look up the measured combination Emax of COc1nnc2ccc(N3CCC(c4ccc(OCCN5CCN(C)C(=O)[C@H]5C)cc4)CC3)nn12 [AZD5153] + CC1(C)CCC(CN2CCN(c3ccc(C(=O)NS(=O)(=O)c4ccc(NCC5CCOCC5)c([N+](=O)[O-])c4)c(Oc4cnc5[nH]ccc5c4)c3)CC2)=C(c2ccc(Cl)cc2)C1 [Venetoclax] (first compound max 1 µM, 7x7, partner max 1 µM) for me?
## Result 0.625

## Task Can you look up the measured combination Emax of C=CCn1c(=O)c2cnc(Nc3ccc(N4CCN(C)CC4)cc3)nc2n1-c1cccc(C(C)(C)O)n1 [AZD1775] + CCc1c2c(nc3ccc(O)cc13)-c1cc3c(c(=O)n1C2)COC(=O)[C@]3(O)CC [SN-38] (first compound max 1 µM, partner max 0.3 µM) for me?
## Result 0.56

## Task Can you look up the measured combination Emax of Cc1c2c(nn1C)CSCc1cc(n(C)n1)CSc1cc(c3ccccc3c1)OCCCc1c(C(=O)O)n(C)c3c-2c(Cl)ccc13 [AZD5991] + C1CN(CCC1(C(=O)N[C@@H](CCO)C2=CC=C(C=C2)Cl)N)C3=NC=NC4=C3C=CN4 [Capivasertib] (first compound max 1 µM, 7x7, partner max 3 µM) for me?
## Result 0.118

## Task Can you look up the measured combination Emax of CC1(C)CCC(CN2CCN(c3ccc(C(=O)NS(=O)(=O)c4ccc(NCC5CCOCC5)c([N+](=O)[O-])c4)c(Oc4cnc5[nH]ccc5c4)c3)CC2)=C(c2ccc(Cl)cc2)C1 [Venetoclax] + CN(C)CCCOc1ccc(-c2ccc3ncc4c(c3c2)n(C2CCOCC2)c(=O)n4C)cn1 [AZD0156] (first compound max 1 µM, 7x7, partner max 1 µM) for me?
## Result 0.231

## Task Can you look up the measured combination Emax of N#Cc1cnc(Nc2cc(NC[C@H]3CNCCO3)c(C(F)(F)F)cn2)cn1 [SRA737] + CCc1c2c(nc3ccc(O)cc13)-c1cc3c(c(=O)n1C2)COC(=O)[C@]3(O)CC [SN-38] (first compound max 10 µM, 7x7, partner max 0.3 µM) for me?
## Result 0.486

## Task Can you look up the measured combination Emax of N#Cc1cnc(Nc2cc(NC[C@H]3CNCCO3)c(C(F)(F)F)cn2)cn1 [SRA737] + O=c1[nH]cc(F)c(=O)[nH]1 [5-Fluorouracil] (first compound max 10 µM, 7x7, partner max 20 µM) for me?
## Result 0.157

## Task Can you look up the measured combination Emax of Cc1cc2ncnn2cc1Nc1ncc2c(n1)n(C1CCOCC1)c(=O)n2C [AZD7648] + O=C(c1cc(Cc2n[nH]c(=O)c3ccccc23)ccc1F)N1CCN(C(=O)C2CC2)CC1 [Olaparib] (first compound max 10 µM, 7x7, partner max 10 µM) for me?
## Result 0.24

## Task Can you look up the measured combination Emax of COc1cccc(OCCCN)c1-c1cc(Nc2cnc(C#N)cn2)n[nH]1 [Prexasertib] + C=CCn1c(=O)c2cnc(Nc3ccc(N4CCN(C)CC4)cc3)nc2n1-c1cccc(C(C)(C)O)n1 [AZD1775] (first compound max 1 µM, partner max 1 µM) for me?
## Result 0.605
